Sourced from PubChem BioAssay (NCI)

Tested on: HCT-15 colon
ASSAY DETAILS: NCI tumour cell line growth inhibition, 48 h; in the data active = GI50 below about 0.43 µM; inactive = the rest
Thanks in advance; please answer with one of these: 1.0 (active), 0.0 (inactive)

Below, 6 compounds whose answers are already recorded.
{"COMPOUND": "COc1ccc(C#CC2=C(c3cc(OC)c(OC)c(OC)c3)C(=O)OC2)cc1", "CATEGORY": 0.0}
{"COMPOUND": "CN(C)c1ccc(/C=N/NC(=O)c2cccc3ccccc23)c(Cl)c1", "CATEGORY": 0.0}
{"COMPOUND": "Cc1cc2c(cc1C)[n+](Cc1ccc3ccccc3n1)cn2Cc1ccc2ccccc2n1", "CATEGORY": 0.0}
{"COMPOUND": "COc1ccc(/C(=N/O)c2cc(OC)c(OC)c(OC)c2)c(OC)c1N", "CATEGORY": 0.0}
{"COMPOUND": "Clc1ccc(N2CCC(N3CCCC3)CC2)cc1-c1nc2ccccc2[nH]1", "CATEGORY": 0.0}
{"COMPOUND": "COc1ccc(C(=O)OC2C(OC3C(O)COC(O[C@H]4C[C@H]5[C@@H]6CC=C7C[C@@H](O)CC[C@]7(C)[C@H]6CC[C@]5(C)[C@H]4[C@H](C)C(=O)CCC(C)C)C3OC(C)=O)OCC(O)C2O)cc1 (some centres undefined)", "CATEGORY": 1.0}

Test call, this compound: O=C(Nc1cccc(-n2cc(-c3ccncc3)c(-c3ccc(O)c(Cl)c3)n2)c1)c1ccc(Cl)c(Cl)c1
0.0

Given Cc1cc(O)cc(C)c1/C=C/c1cncc(C(=O)OC(C)(C)C)c1 , state the outcome it received in this test.
0.0

I would be grateful if you could indicate the recorded call for CCN(CC)CCCNc1[nH]ncc2c(C)c3nc4ccccc4c3cc12 .
0.0

====

The following compounds are shown together with reported log10(TGI) values.
Test system: KM12 colon
ASSAY DETAILS: NCI tumour cell line growth inhibition, 48 h
The figures below represent log10 of TGI, where TGI is stated in µM.

Worked set:
{"COMPOUND": "CC(=O)NC1=C(Sc2ccc(Cl)cc2)C(=O)c2ccccc2C1=O", "log10(TGI)": 1.22}
{"COMPOUND": "CCN(CC)CC(=O)Nc1ccc2c(c1)C(=O)c1ccc(NC(=O)CN(CC)CC)cc1C2=O", "log10(TGI)": 1.85}
{"COMPOUND": "C#CC(=O)OCC#CCOC(=O)C#C", "log10(TGI)": 1.64}
{"COMPOUND": "CC(=O)/C(=C\\c1c(-c2ccccc2)[nH]c2ccccc12)S(=O)(=O)c1ccccc1", "log10(TGI)": 0.42}
{"COMPOUND": "O=C1CCCN1CCCN=c1cc2n(-c3ccc(Cl)cc3)c3ccccc3nc-2cc1Nc1ccc(Cl)cc1", "log10(TGI)": 1.46}

What log10(TGI) value was documented for this compound, O=C1c2c(c3c4ccccc4[nH]c3c3[nH]c4ccccc4c23)C(=O)N1Cc1ccccc1 ?
0.98

Which value of log10(TGI) has been reported for Brc1ccc(C2SCc3nc4ccccc4n32)cc1 (stereo not given) in the records?
1.32

Could you tell me which log10(TGI) is on file for C[C@]12CC[C@@H]3c4ccc(O)cc4CC[C@H]3[C@@H]1CC[C@@H]2NS(=O)(=O)c1ccc2ccccc2c1 ?
0.61

Look up log10(TGI): C=CCn1c(-c2ccc(Cl)cc2Cl)csc1=Nc1c(C)n(C)n(-c2ccccc2)c1=O
1.47

Sample COC(=O)/C(=C\c1c(-c2ccccc2)[nH]c2ccccc12)S(C)(=O)=O — what was its log10(TGI)?
0.65

# query: log10(TGI) of entry Oc1ccccc1C=Nc1ccccc1N=Cc1ccccc1O.[Cu+2]
1.18

Field request: log10(TGI) | item: COc1cc(C2C3=C(COC3=O)Nc3cc4c(cc32)OCO4)cc2c1OCO2 (stereo not given)
0.28

Consider the compound CC(=O)c1cccc(NC(=O)c2ccc(NC3=C(Cl)C(=O)N(Cc4ccccc4)C3=O)cc2)c1 and give its measured log10(TGI).
1.63

Data request, read-out log10(TGI), for CN(C)/C=C/c1c2c(nc3ccccc13)C(=O)c1ccccc1C2=O
0.56

Any idea what log10(TGI) was measured for COc1cc(NC(C)CCCN)c2ncccc2c1Sc1ccc(Cl)cc1 (stereo not given) ?
0.51
